Where do these numbers come from? They come from paper PMC9007951.

Protocol summary: Timed organ biodistribution of [^64Cu]Cu-DOTATATE by ex vivo gamma counting
Format: in vivo, mice
Test parameters: mouse, thoracic aorta, intravenous, 1.85 MBq, total radioactivity; female Apoe^-/- mice 12 weeks on Western Diet, 1 min after injection, median (IQR), N=3-8; read-out: Tissue radioactivity, thoracic aorta
Property: tissue uptake at 1 min (%ID/g)

Compound: C[C@@H](O)[C@H](NC(=O)[C@@H]1CSSC[C@H](NC(=O)[C@@H](Cc2ccccc2)NC(=O)CN2CCN(CC(=O)O)CCN(CC(=O)O)CCN(CC(=O)O)CC2)C(=O)N[C@@H](Cc2ccc(O)cc2)C(=O)N[C@H](Cc2c[nH]c3ccccc23)C(=O)N[C@@H](CCCCN)C(=O)N[C@@H]([C@@H](C)O)C(=O)N1)C(=O)O [[^64Cu]Cu-DOTATATE, metal not drawn]
Property: tissue uptake at 1 min
Value observed: 2.9

====

Protocol summary: Organ biodistribution of [^68Ga]Ga-DOTATATE by ex vivo gamma counting
Type: in vivo, New Zealand White rabbits
Test parameters: male, New Zealand White, rabbit, lungs, iv, 190 MBq, total radioactivity, male athero4mo rabbits, 200 min after tracer injection, median (IQR), N = 9; read-out: Tissue radioactivity, lungs
Property: tissue uptake at 200 min (%ID/g)

Compound: C[C@@H](O)[C@H](NC(=O)[C@@H]1CSSC[C@H](NC(=O)[C@@H](Cc2ccccc2)NC(=O)CN2CCN(CC(=O)O)CCN(CC(=O)O)CCN(CC(=O)O)CC2)C(=O)N[C@@H](Cc2ccc(O)cc2)C(=O)N[C@H](Cc2c[nH]c3ccccc23)C(=O)N[C@@H](CCCCN)C(=O)N[C@@H]([C@@H](C)O)C(=O)N1)C(=O)O [[^68Ga]Ga-DOTATATE, metal not drawn]
Value observed: 0.015

====

Protocol summary: Timed organ biodistribution of [^64Cu]Cu-DOTATATE by ex vivo gamma counting
Assay type: in vivo, mice
Test parameters: mouse, pancreas, intravenous, 1.85 MBq, total radioactivity; female Apoe^-/- mice 12 weeks on Western Diet, 60 min after injection, median (IQR), N=3-8; read-out: Tissue radioactivity, pancreas

Molecule: C[C@@H](O)[C@H](NC(=O)[C@@H]1CSSC[C@H](NC(=O)[C@@H](Cc2ccccc2)NC(=O)CN2CCN(CC(=O)O)CCN(CC(=O)O)CCN(CC(=O)O)CC2)C(=O)N[C@@H](Cc2ccc(O)cc2)C(=O)N[C@H](Cc2c[nH]c3ccccc23)C(=O)N[C@@H](CCCCN)C(=O)N[C@@H]([C@@H](C)O)C(=O)N1)C(=O)O [[^64Cu]Cu-DOTATATE, metal not drawn]
Readout units: %ID/g
tissue uptake at 1 h: 2.7

====

Protocol summary: Organ biodistribution of [^68Ga]Ga-DOTATATE by ex vivo gamma counting
Type: in vivo, New Zealand White rabbits
Test parameters: male, New Zealand White, rabbit, kidneys, iv, 190 MBq, total radioactivity, male control rabbits, 200 min after tracer injection, median (IQR), N = 6; read-out: Tissue radioactivity, kidneys
Description: Adopting a translational approach, the rabbit studies were performed with the [^68Ga]Ga-labeled tracer, which is already being used in the clinic. [^68Ga]Ga-DOTATATE was purchased from Advanced Accelerator Applications (AAA, Millburn, NJ, USA). […] Samples were weighed and gamma counted. […] To investigate the tracer blood distribution, blood samples were centrifuged at 2000 g for 15 min at 4 °C to determine the radioactivity concentration in the plasma and cellular fractions. […]

Compound: C[C@@H](O)[C@H](NC(=O)[C@@H]1CSSC[C@H](NC(=O)[C@@H](Cc2ccccc2)NC(=O)CN2CCN(CC(=O)O)CCN(CC(=O)O)CCN(CC(=O)O)CC2)C(=O)N[C@@H](Cc2ccc(O)cc2)C(=O)N[C@H](Cc2c[nH]c3ccccc23)C(=O)N[C@@H](CCCCN)C(=O)N[C@@H]([C@@H](C)O)C(=O)N1)C(=O)O [[^68Ga]Ga-DOTATATE, metal not drawn]
tissue uptake at 200 min: 0.128 %ID/g
